Give pIC50 for every item shown.
# measured.target: Mitogen-activated protein kinase 14 (Homo sapiens)
# Sequence (Q16539 whole entry): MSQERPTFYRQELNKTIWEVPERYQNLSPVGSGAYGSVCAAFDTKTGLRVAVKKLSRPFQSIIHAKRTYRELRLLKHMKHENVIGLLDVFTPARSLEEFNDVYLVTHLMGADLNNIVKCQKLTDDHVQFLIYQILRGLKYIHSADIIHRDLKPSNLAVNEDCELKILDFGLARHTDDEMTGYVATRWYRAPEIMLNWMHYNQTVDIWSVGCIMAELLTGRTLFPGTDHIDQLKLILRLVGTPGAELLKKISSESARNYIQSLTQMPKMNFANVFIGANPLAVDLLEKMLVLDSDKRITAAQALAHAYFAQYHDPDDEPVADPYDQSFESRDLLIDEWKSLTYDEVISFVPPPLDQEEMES
# assay.protocol: Inhibition of p38 alpha (unknown origin) by KiNativ Profiling analysis
Please keep in mind that pIC50 is minus log10 of the molar concentration; only the number is needed.

Give the value of pIC50 reported for the following: CCN1CCN(Cc2ccc(NC(=O)c3ccc(C)c(Oc4ncnc5[nH]c(C)cc45)c3)cc2C(F)(F)F)CC1
6.83

Report pIC50, nothing else, for this molecule: CCN1CCN(Cc2ccc(C(=O)Nc3ccc(C)c(Oc4ccnc5[nH]ccc45)c3)cc2C(F)(F)F)CC1
7.71

Provide only the value of recorded pIC50 for CCN1CCN(Cc2ccc(NC(=O)c3ccc(C)c(Oc4ncnc5[nH]ncc45)c3)cc2C(F)(F)F)CC1
7.53

Read the entry CCN1CCN(Cc2ccc(NC(=O)c3ccc(C)c(/C=C/c4cnc5[nH]ccc5c4OC)c3)cc2C(F)(F)F)CC1 and write its reported pIC50.
6.62

Identify the reported pIC50 for the following entry. CCN1CCN(Cc2ccc(NC(=O)c3ccc(C)c(Oc4ccnc(NC)n4)c3)cc2C(F)(F)F)CC1
7.34

Item COc1c(/C=C/c2cc(C(=O)Nc3ccc(OC4CCN(C)CC4)c(C(F)(F)F)c3)ccc2C)cnc2[nH]ccc12 : provide pIC50
7.20

State its pIC50: CCN1CCN(Cc2ccc(NC(=O)c3ccc(C)c(Oc4ncnc5[nH]ccc45)c3)cc2C(F)(F)F)CC1
6.89

# return recorded pIC50 for entry CCN1CCN(Cc2ccc(C(=O)Nc3cccc(CCc4cnc5[nH]ccc5c4OC)c3)cc2C(F)(F)F)CC1
6.26

For CCN1CCN(Cc2ccc(NC(=O)c3cccc(Oc4ccnc5[nH]ccc45)c3)cc2C(F)(F)F)CC1 , write its pIC50.
7.44

Using known records, supply pIC50 for CCN1CCN(Cc2ccc(NC(=O)c3ccc(C)c(OCc4cnc5[nH]ccc5c4OC)c3)cc2C(F)(F)F)CC1
6.18

State, in one line, measured pIC50 of COc1c(CCc2cc(C(=O)Nc3cc(-n4cnc(C)c4)cc(C(F)(F)F)c3)ccc2C)cnc2[nH]ccc12
8.28

Answer with the recorded pIC50 for the molecule listed here: COc1c(/C=C/c2cc(C(=O)Nc3ccc(CN4CCC(N(C)C)C4)c(C(F)(F)F)c3)ccc2C)cnc2[nH]ccc12 (configuration not stated)
6.85
